Reported remaining activity values for the following compounds.
target: Phospholipase D2 (Homo sapiens); assay: PLD2 inhibitors in cells, cell-based, HEK293, single concentration (AID 602143); conditions: HEK293 cellular PLD2 activity, percent of control; hits give low values;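 also: tested at 200 nM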
Answer in %, number only, no unit symbol.

> print(dat)
                                 smiles.str  test.result
1  O=C(NCCN1CCC(n2c(=O)[nH]c3ccccc32)CC1)c1cnc2ccccc2n1         87.4

Asked: Recorded remaining activity of `C[C@@H](CN1CCC(n2c(=O)[nH]c3ccccc32)CC1)NC(=O)c1ccco1` , please.
Given back: 97.1

Asked: Dear colleague, I am looking for the recorded remaining activity of the following compound: `O=C(Cc1ccc2ccccc2c1)NCCN1CCC(n2c(=O)[nH]c3ccccc32)CC1`
Given back: 112

Asked: Please report the recorded remaining activity for `C[C@@H](CN1CCC(n2nnc3cc(C(F)(F)F)ccc32)CC1)NC(=O)c1cnc2ccccc2c1` .
Given back: 86.9

Asked: Need remaining activity, item `O=C(NCCN1CCC(n2c(=O)[nH]c3ccccc32)CC1)c1cccc(Cl)n1`
Given back: 75.4

Asked: Return reported remaining activity; argument: `O=C(NCCN1CCN(c2ncccn2)CC1)c1ccc(Cl)cc1`
Given back: 106

Asked: Which measured remaining activity value corresponds to `O=C(NCCN1CCC2(C=Cc3ccccc32)CC1)c1ccc2ccccc2c1` ?
Given back: 119

###

biological target: Phospholipase D2 (Homo sapiens); test: PLD2 inhibitors in cells, cell-based, HEK293, single concentration (AID 602143); conditions: HEK293 cellular PLD2 activity, percent of control; hits give low values;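 also: tested at 200 nM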
Activity calls are given as the source filed them. Cut-off read from the data, not from the text of the source: active = remaining activity below about 50%; inactive = the rest.
Items are presented alongside their recorded remaining activity.

Known results for compounds:
> print(dat)
                                 smiles.str       test.result
1  O=C(NCCN1CCC(n2c(=O)[nH]c3ccccc32)CC1)c1cccc(F)n1  74.5% (inactive)
2  O=c1[nH]c2ccccc2n1C1CCN(CCNS(=O)(=O)c2cccc(C(F)(F)F)c2)CC1  61.1% (inactive)
3  C[C@@H](CN1CCC(n2c(=O)[nH]c3ccc(F)cc32)CC1)NC(=O)c1ccc(F)c(F)c1  52.6% (inactive)
4  O=C(NCCN1CCC(n2c(=O)[nH]c3ccccc32)CC1)c1ccc2c(ccc3ccc4ccccc4c32)c1  96.7% (inactive)
5  Cc1ccc(C(=O)NCCN2CCC(n3c(=O)[nH]c4cc(Br)ccc43)CC2)cc1    21.8% (active)

Asked: Find the recorded remaining activity belonging to `C[C@@H](CN1CCC2(CC1)CN(S(C)(=O)=O)c1ccccc12)NC(=O)c1cnc2ccccc2c1` and report it.
Given back: 136% (inactive)

Asked: Look up remaining activity for this compound: `C[C@@H](CN1CCC(n2c(=O)[nH]c3ccc(F)cc32)CC1)NC(=O)c1ccc(F)cc1`
Given back: 66.8% (inactive)

Asked: Name the recorded remaining activity for `CC(C)[C@@H](CN1CCC(n2c(=O)[nH]c3ccccc32)CC1)NC(=O)c1ccc(F)cc1` .
Given back: 82% (inactive)

src = PubChem BioAssay AID602143
